measured endpoint: IC50 (µM)
# value in µM; strip the unit string

Specify IC50 for Cn1nc2c(=O)n(C3CC3)ccc2c1[C@](O)(c1cnc(C(F)(F)F)c(Cl)c1)C(F)(F)F , system UniProtKB P33261.
Sequence (P33261 whole entry): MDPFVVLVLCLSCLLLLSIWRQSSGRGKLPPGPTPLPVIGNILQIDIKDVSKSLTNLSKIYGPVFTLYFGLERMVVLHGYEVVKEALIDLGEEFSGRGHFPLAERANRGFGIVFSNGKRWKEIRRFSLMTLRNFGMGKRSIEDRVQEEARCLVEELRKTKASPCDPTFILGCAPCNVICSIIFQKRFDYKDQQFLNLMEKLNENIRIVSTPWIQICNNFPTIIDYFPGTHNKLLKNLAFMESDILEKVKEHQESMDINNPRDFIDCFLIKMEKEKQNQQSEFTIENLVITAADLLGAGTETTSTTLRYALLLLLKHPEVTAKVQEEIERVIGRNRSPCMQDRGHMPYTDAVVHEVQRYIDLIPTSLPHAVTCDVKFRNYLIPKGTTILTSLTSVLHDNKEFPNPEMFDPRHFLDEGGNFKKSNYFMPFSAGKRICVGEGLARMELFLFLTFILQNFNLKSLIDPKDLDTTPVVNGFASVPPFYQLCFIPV
6.7

---

Would you mind telling me the reported Kinetic_solubility of each entry?
- procedure text: Kinetic solubility of compound at pH 6.5 measured after 30 mins by nephelometry
- Assay type: physicochemical
- measurement conditions: buffer, pH 6.5, 0.5 h

Indicate its recorded Kinetic_solubility; the molecule in question is Cn1nc2c(=O)n(C3CC3)ncc2c1[C@](O)(c1ccc(C(F)(F)F)c(Cl)c1)C1CC1
< 5 µM

Dear colleague, please send me the reported Kinetic_solubility for Cn1nc2c(=O)n(C3CC3)ccc2c1[C@](O)(c1ccc(C(F)(F)F)c(C#N)c1)C1CC1 when you can.
< 5 µM

Consider the molecule CC[C@@](O)(c1cnc(C(F)(F)F)c(Cl)c1)c1c2ncn(C3CC3)c(=O)c2nn1C . State its measured Kinetic_solubility.
> 100 µM

Output Kinetic_solubility of CCn1cc(C)c2c([C@H](N)c3ccc(C(F)(F)F)nc3)n(C)nc2c1=O
> 320 µM

Give recorded Kinetic_solubility. CCn1ccc2c(Cc3ccc(C(F)(F)F)nc3)n(C)nc2c1=O
> 300 µM

Name the recorded Kinetic_solubility of the item CC[C@@](N)(c1ccc(C(F)(F)F)c(Cl)c1)c1c2ncn(C3CC3)c(=O)c2nn1C in your answer.
> 100 µM

Read off the recorded Kinetic_solubility for CCn1cc(C2CC2)c2c(CN3CCC(C)(F)CC3)n(C)nc2c1=O
> 100 µM

Output Kinetic_solubility of CC[C@@](N)(c1cnc(C(F)(F)F)c(Cl)c1)c1c2ccn(C3CC3)c(=O)c2nn1C
> 100 µM

In one line, give reported Kinetic_solubility of the entry CCn1cc(C2CC2)c2c([C@H](N)c3ccc(C(F)(F)F)nc3)n(C)nc2c1=O .
> 320 µM

# return recorded Kinetic_solubility for input CCn1cc(C)c2c(Cc3ccc(C(F)(F)F)nc3)n(C)nc2c1=O
> 280 µM
